# Assay system: P2X7 (Homo sapiens (Human))
Mark t only when Ki stays strictly below 40 nM. Values equal to the cut-off are f.

Example entries begin here.
[
  {
    "Compound": "O=C(c1cccc(C(F)(F)F)c1Cl)N1CCc2c(ncn2-c2ccccn2)C1",
    "Qualitative label": "f"
  },
  {
    "Compound": "CC1c2ncn(-c3ccc(F)cc3)c2CCN1C(=O)c1cccc(C(F)(F)F)c1F (centres unmarked)",
    "Qualitative label": "f"
  },
  {
    "Compound": "O=C(c1ccnc(Cl)c1Cl)N1CCc2c(-c3ccccc3)n[nH]c2C1",
    "Qualitative label": "f"
  },
  {
    "Compound": "O=C(c1cccc(C(F)(F)F)c1Cl)N1CCc2c(nnn2-c2cc(F)ccn2)C1",
    "Qualitative label": "f"
  },
  {
    "Compound": "CC1c2nnn(-c3cnccn3)c2CCN1C(=O)c1ccc(Cl)cc1Cl (centres unmarked)",
    "Qualitative label": "t"
  }
]

Now, please, on to the next compound.
[Q] Ki strictly < 40 nM for this compound? CC1Cc2c(-c3ccnn3C)nn(C)c2CN1C(=O)c1cccc(C(F)(F)F)c1Cl (centres unmarked)
[A] t

* * *

Each entry below lists one item and its recorded PBMC 10 μM (% control) value.
# Assay system: P2X7 (Homo sapiens (Human))
# Experiment: P2X7 antagonism in human PBMCs (LPS + Bz-ATP induced IL-1β release, ELISA)
# Format: cell-based
# Conditions used: compound 10 μM, LPS 30 ng/ml, Bz-ATP 0.5 mM
Just the number please, in % control, no unit attached.

Completed entries (count: 2):
[
  {
    "Compound": "C[C@@H]1Cc2c(nnn2-c2ccn[nH]2)[C@H](C)N1C(=O)c1cccc(C(F)(F)F)c1Cl [Example 297]",
    "Assay system": "P2X7 (Homo sapiens (Human))",
    "Outcome measure": "PBMC 10 μM (% control)",
    "Reported": 2.6
  },
  {
    "Compound": "COc1ccnc(-n2nnc3c2CCN(C(=O)c2cccc(C(F)(F)F)c2Cl)[C@H]3C)c1 (single isomer, unassigned) [Example 151]",
    "Assay system": "P2X7 (Homo sapiens (Human))",
    "Outcome measure": "PBMC 10 μM (% control)",
    "Reported": 19.5
  }
]

Here is another compound to look at.
[Q] Which PBMC 10 μM (% control) value belongs to Cc1cccnc1-n1nnc2c1CCN(C(=O)c1cccc(C(F)(F)F)c1Cl)[C@@H]2C (single isomer, unassigned) [Example 291] ?
[A] −7.1

* * *

# Assay system: UniProt Q64663
# Sequence (Q64663 whole entry): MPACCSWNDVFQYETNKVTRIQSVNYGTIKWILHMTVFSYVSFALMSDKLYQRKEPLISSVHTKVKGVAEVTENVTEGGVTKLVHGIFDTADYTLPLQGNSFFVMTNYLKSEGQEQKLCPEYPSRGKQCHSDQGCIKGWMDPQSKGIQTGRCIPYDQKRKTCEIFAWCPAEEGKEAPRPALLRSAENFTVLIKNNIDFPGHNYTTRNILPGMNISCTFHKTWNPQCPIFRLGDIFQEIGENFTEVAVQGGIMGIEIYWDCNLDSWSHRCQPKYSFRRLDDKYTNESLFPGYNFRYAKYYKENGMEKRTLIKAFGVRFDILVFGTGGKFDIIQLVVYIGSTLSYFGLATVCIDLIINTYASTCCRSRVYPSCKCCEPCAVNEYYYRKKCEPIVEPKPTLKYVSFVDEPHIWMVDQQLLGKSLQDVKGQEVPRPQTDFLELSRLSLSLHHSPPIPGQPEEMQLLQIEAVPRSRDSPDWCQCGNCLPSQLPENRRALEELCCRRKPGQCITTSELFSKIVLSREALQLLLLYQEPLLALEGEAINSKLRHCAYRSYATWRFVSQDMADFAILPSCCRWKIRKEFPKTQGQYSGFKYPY
# Experiment: Ca2+ flux (FLIPR) in 1321N1 cells expressing recombinant rat P2X7 channel;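 note: Calcium-4 dye fluorescence change read 180 s after agonist addition, following 30 min cell preincubation with test compound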
# Conditions used: 250 μM BzATP
Each entry below lists one item and its recorded IC50 value.
Just the number please, in nM, no unit attached.

Completed entries (count: 5):
[
  {
    "Compound": "O=C(c1cccc(C(F)(F)F)c1F)N1CCc2c(ncn2-c2ccn[nH]2)C1",
    "Assay system": "UniProt Q64663",
    "Reported": 527
  },
  {
    "Compound": "O=C(c1ccc(Cl)cc1F)N1CCc2c(nnn2-c2cnccn2)C1",
    "Assay system": "UniProt Q64663",
    "Reported": 3020
  },
  {
    "Compound": "C[C@@H]1c2nnn(-c3ncccn3)c2CCN1C(=O)c1cccc(C(F)(F)F)c1F (single isomer, unassigned)",
    "Assay system": "UniProt Q64663",
    "Reported": 11.1
  },
  {
    "Compound": "C[C@H]1Cc2c(nnn2-c2ncc(F)cn2)CN1C(=O)c1ccc(Cl)cc1F",
    "Assay system": "UniProt Q64663",
    "Reported": 604
  },
  {
    "Compound": "CC1c2nnn(-c3ncccn3)c2CCN1C(=O)c1ccc(Cl)cc1F (stereo not shown)",
    "Assay system": "UniProt Q64663",
    "Reported": 673
  }
]

[Q] Which IC50 value belongs to CC1CN(C(=O)c2cccc(C(F)(F)F)c2Cl)C(C)c2nnn(-c3ccc(F)cc3)c21 (stereo not shown) ?
[A] 724

[Q] Which IC50 value belongs to CC1c2ncn(-c3cnccn3)c2CCN1C(=O)c1cccc(C(F)(F)F)c1F (stereo not shown) ?
[A] 141

[Q] Which IC50 value belongs to CC1CN(C(=O)c2cccc(C(F)(F)F)c2Cl)Cc2nnn(-c3ccccc3)c21 (stereo not shown) ?
[A] 2070

[Q] Which IC50 value belongs to CC1c2nnn(-c3ccc(F)cn3)c2CCN1C(=O)c1cccc(C(F)(F)F)c1Cl (stereo not shown) ?
[A] 397

[Q] Which IC50 value belongs to C[C@H]1Cc2c(nnn2-c2cc(F)ccn2)CN1C(=O)c1cccc(Cl)c1Cl (single isomer, unassigned) ?
[A] 2620

[Q] Which IC50 value belongs to C[C@@H]1c2n[nH]c(-c3ncc(F)cn3)c2CCN1C(=O)c1cccc(C(F)(F)F)c1Cl (single isomer, unassigned) ?
[A] 564

[Q] Which IC50 value belongs to Cn1nc(-c2cccnc2)c2c1CN(C(=O)c1cccc(C(F)(F)F)c1Cl)CC2 ?
[A] 794

[Q] Which IC50 value belongs to CC1c2nnn(-c3cc[nH]n3)c2C=CN1C(=O)c1cccc(C(F)(F)F)c1Cl (stereo not shown) ?
[A] 136

[Q] Which IC50 value belongs to O=C(c1cccc(C(F)(F)F)c1Cl)N1CCc2c(nnn2-c2ccn[nH]2)C1 ?
[A] 184

* * *

Each entry below lists one item and its recorded PBMC 1 μM (% control) value.
# Assay system: P2X7 (Homo sapiens (Human), UniProt Q99572)
# Sequence (Q99572 whole entry): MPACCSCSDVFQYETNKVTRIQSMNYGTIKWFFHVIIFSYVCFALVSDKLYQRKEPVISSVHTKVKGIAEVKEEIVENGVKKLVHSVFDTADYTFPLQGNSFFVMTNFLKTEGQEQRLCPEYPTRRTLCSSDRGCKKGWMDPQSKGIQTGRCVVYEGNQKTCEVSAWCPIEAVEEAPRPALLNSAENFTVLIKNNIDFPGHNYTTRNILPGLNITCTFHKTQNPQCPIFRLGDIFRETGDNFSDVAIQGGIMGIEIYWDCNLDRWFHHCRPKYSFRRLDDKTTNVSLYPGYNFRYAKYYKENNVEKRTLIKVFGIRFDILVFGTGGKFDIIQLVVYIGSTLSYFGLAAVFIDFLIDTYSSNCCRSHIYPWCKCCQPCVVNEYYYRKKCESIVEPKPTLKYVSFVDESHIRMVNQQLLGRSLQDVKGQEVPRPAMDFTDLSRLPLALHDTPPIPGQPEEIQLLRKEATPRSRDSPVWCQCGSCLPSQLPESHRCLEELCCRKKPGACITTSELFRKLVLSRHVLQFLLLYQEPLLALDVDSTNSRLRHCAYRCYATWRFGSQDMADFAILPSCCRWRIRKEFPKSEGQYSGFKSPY
# Experiment: P2X7 antagonism in human PBMCs (LPS + Bz-ATP induced IL-1β release, ELISA)
# Assay type: cell-based
# Conditions used: compound 1 μM, LPS 30 ng/ml, Bz-ATP 0.5 mM
Just the number please, in % control, no unit attached.

Completed entries (count: 6):
[
  {
    "Compound": "Cn1nc2c(c1-c1ccc(F)cc1)CCN(C(=O)c1cccc(C(F)(F)F)c1Cl)C2 [Example 105]",
    "PBMC 1 μM (% control)": 51.0
  },
  {
    "Compound": "O=C(c1cccc(C(F)(F)F)c1Cl)N1C=Cc2c(nnn2-c2ccccn2)C1 [Example 90]",
    "PBMC 1 μM (% control)": 13.3
  },
  {
    "Compound": "CCOC(=O)C1c2ncn(-c3ccccn3)c2CCN1C(=O)c1cccc(Cl)c1Cl (centres unmarked) [Example 25]",
    "PBMC 1 μM (% control)": 9.7
  },
  {
    "Compound": "O=C(c1cccc(C(F)(F)F)c1Cl)N1CCc2c(ncn2-c2cnccn2)C1 [Example 6]",
    "PBMC 1 μM (% control)": 14.3
  },
  {
    "Compound": "Cn1nc(-c2ccccc2)c2c1CN(C(=O)c1cccc(Cl)c1Cl)CC2 [Example 103]",
    "PBMC 1 μM (% control)": 56.0
  },
  {
    "Compound": "Cn1nc(-c2ccc(F)cc2)c2c1CN(C(=O)c1cccc(C(F)(F)F)c1Cl)CC2 [Example 106]",
    "PBMC 1 μM (% control)": 64.4
  }
]

[Q] Which PBMC 1 μM (% control) value belongs to O=C(c1cccc(C(F)(F)F)c1Cl)N1CCc2c(ncn2-c2cc(F)cc(F)c2)C1 [Example 7] ?
[A] 98.7

[Q] Which PBMC 1 μM (% control) value belongs to Cn1nc2c(c1-c1cncnc1)CCN(C(=O)c1cccc(Cl)c1Cl)C2 [Example 329] ?
[A] 99.5

* * *

# Assay system: P2X7 (Homo sapiens (Human), UniProt Q99572)
# Experiment: P2X7 antagonism in human PBMCs (LPS + Bz-ATP induced IL-1β release, ELISA);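 note: PBMCs from donor human blood, with a further 1.5 h incubation of the cells in the assay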
# Format: cell-based
# Conditions used: compound 10 μM, LPS 30 ng/ml, Bz-ATP 0.5 mM
Each entry below lists one item and its recorded PBMC 10 μM (% control) value.
Just the number please, in % control, no unit attached.

[
  {
    "Molecule": "CCc1ccnc(-n2nnc3c2CCN(C(=O)c2cccc(C(F)(F)F)c2Cl)[C@@H]3C)n1 (single isomer, unassigned) [Example 294]",
    "Result unit": "% control",
    "PBMC 10 μM (% control)": "−8.1"
  },
  {
    "Molecule": "C[C@@H]1c2ncn(-c3ccccn3)c2CCN1C(=O)c1cccc(C(F)(F)F)c1F (single isomer, unassigned) [Example 42]",
    "Result unit": "% control",
    "PBMC 10 μM (% control)": 5.8
  },
  {
    "Molecule": "O=C(c1cccc(Cl)c1Cl)N1CCc2c(ncn2-c2ccccn2)C1 [Example 4]",
    "Result unit": "% control",
    "PBMC 10 μM (% control)": "−3.7"
  }
]

[Q] Which PBMC 10 μM (% control) value belongs to CC1Cc2c(nnn2-c2cc[nH]n2)CN1C(=O)c1cccc(C(F)(F)F)c1Cl (stereo not shown) [Example 210] ?
[A] 0.8

[Q] Which PBMC 10 μM (% control) value belongs to CC1c2nnn(-c3cnccn3)c2CCN1C(=O)c1cccc(C(F)(F)F)c1F (stereo not shown) [Example 273] ?
[A] −2.1

[Q] Which PBMC 10 μM (% control) value belongs to CCc1cccnc1-n1nnc2c1CCN(C(=O)c1cccc(C(F)(F)F)c1)C2C (stereo not shown) [Example 295] ?
[A] 10.1

[Q] Which PBMC 10 μM (% control) value belongs to CC1c2ncn(-c3ccc(F)cn3)c2CCN1C(=O)c1ccc(F)cc1Cl (stereo not shown) [Example 256] ?
[A] 7.1

[Q] Which PBMC 10 μM (% control) value belongs to CCc1nc2c(n1-c1ccccc1)CCN(C(=O)c1cccc(Cl)c1Cl)C2 [Example 332] ?
[A] −9.5

[Q] Which PBMC 10 μM (% control) value belongs to O=C(c1cccc(C(F)(F)F)c1F)N1CCc2c(ncn2-c2ccc(F)cn2)C1 [Example 314] ?
[A] 18.7

[Q] Which PBMC 10 μM (% control) value belongs to CC1CN(C(=O)c2cccc(C(F)(F)F)c2Cl)C(C)c2nnn(-c3ccccc3)c21 (stereo not shown) [Example 241] ?
[A] 6.5

[Q] Which PBMC 10 μM (% control) value belongs to CC1CN(C(=O)c2cccc(C(F)(F)F)c2Cl)Cc2nnn(-c3ccccc3)c21 (stereo not shown) [Example 245] ?
[A] −7.3

[Q] Which PBMC 10 μM (% control) value belongs to C[C@H]1c2nnn(-c3ccn(CCF)n3)c2CCN1C(=O)c1cccc(C(F)(F)F)c1Cl (single isomer, unassigned) [Example 172] ?
[A] −6.0

[Q] Which PBMC 10 μM (% control) value belongs to CCc1cccnc1-n1nnc2c1CCN(C(=O)c1cccc(C(F)(F)F)c1Cl)C2C (stereo not shown) [Example 254] ?
[A] 0.9

[Q] Which PBMC 10 μM (% control) value belongs to Cc1cccc(-n2nnc3c2CCN(C(=O)c2cccc(C(F)(F)F)c2Cl)C3C)n1 (stereo not shown) [Example 302] ?
[A] −2.8

[Q] Which PBMC 10 μM (% control) value belongs to C[C@@H]1Cc2c(nnn2-c2ncc(F)cn2)CN1C(=O)c1cccc(C(F)(F)F)c1F [Example 219] ?
[A] 76.5

[Q] Which PBMC 10 μM (% control) value belongs to CCOc1cccnc1-n1nnc2c1CCN(C(=O)c1cccc(C(F)(F)F)c1Cl)[C@@H]2C (single isomer, unassigned) [Example 316] ?
[A] −9.6

[Q] Which PBMC 10 μM (% control) value belongs to O=C(c1ccc(Cl)cc1F)N1CCc2c(nnn2-c2ncccn2)C1 [Example 280] ?
[A] 3.4

[Q] Which PBMC 10 μM (% control) value belongs to C[C@H]1c2nnn(-c3ccn(C)n3)c2CCN1C(=O)c1cccc(C(F)(F)F)c1Cl (single isomer, unassigned) [Example 170] ?
[A] −5.7
